target: C-terminal-binding protein 1 (Homo sapiens) (UniProt Q13363); test: qHTS for Inhibitors of the Phosphatase Activity of Eya2: Carboxyl-terminal binding protein (CtBP) Counterscreen for Cherry-picked Compounds; conditions: purified protein-protein binding, AlphaScreen, 3 h; series mostly up to 46.1 µM; note: nearly all actives have a fitted effect of over 65% in size
Out of some 1,300 compounds screened, about 420 (32%) were called active. Another 32% or so got no clear call; they are omitted. Calls come from the whole dose curve; as a rule, active = well fitted inhibition curve with a large enough effect; inconclusive = small, poorly fitted or top-dose-only effect; inactive = no such curve, though single readings can be large or run the other way. The list shows a part of the results.
The categories you may choose from are active, inactive

Observe how each entry below is paired with its result.
1) Cc1cc(/C=C2\C(=N)N3N=C(CC(=O)N4CCOCC4)SC3=NC2=O)c(C)n1Cc1ccccc1	inactive
2) CCOc1cc(/C=C2\C(=N)N3N=C(CC)SC3=NC2=O)ccc1OCCOc1ccc(NC(C)=O)cc1	active
3) COc1ccc(N2CCN(C(c3ccco3)c3sc4nc(C)nn4c3O)CC2)cc1 (stereo unspecified)	inactive
4) CC(C)C(=O)NC(c1ccc(Cl)cc1Cl)c1ccc2cccnc2c1O (stereo unspecified)	active
5) O=C(/C=C/c1ccco1)Nc1ccccc1N1CCCC1	inactive

// query Per the assay record, what outcome was assigned to `CCn1cc(C(=O)OCC(=O)c2cc(C)n(-c3ccccc3F)c2C)c(=O)c2ccc(C)nc21` ?
// result active

// query Per the assay record, what outcome was assigned to `O=C(/C=C/c1ccco1)Oc1cccc2cccnc12` ?
// result active

// query Per the assay record, what outcome was assigned to `C/C(=C1/C=Nc2ccccc21)c1ccc(N(C)C)cc1` ?
// result active

// query Per the assay record, what outcome was assigned to `O=C(C1=C[C@H](c2ccccc2)C[C@H](OCc2ccc(CO)cc2)O1)N1CCN(Cc2ccccc2)CC1` ?
// result inactive

// query Per the assay record, what outcome was assigned to Cc1cccc(N2CCN(C(=O)C3COc4ccccc4O3)CC2)c1C (stereo unspecified) ?
// result inactive

// query Per the assay record, what outcome was assigned to `Cc1cc(=O)n2[nH]c(Nc3cccc(Cl)c3)nc2n1` ?
// result inactive

====

biological target: C-terminal-binding protein 1 (Homo sapiens) (UniProt Q13363); experiment: qHTS for Inhibitors of the Phosphatase Activity of Eya2: Carboxyl-terminal binding protein (CtBP) Counterscreen for Cherry-picked Compounds; conditions: purified protein-protein binding, AlphaScreen, 3 h; series mostly up to 46.1 µM; note: nearly all actives have a fitted effect of over 65% in size; note: potency is the fitted concentration of half-maximal effect
Among all 1,300 compounds or so, about 420 (32%) were called active. Another 32% or so got no clear call; they are omitted. This is one part of the list.
ATTRIBUTE MEASURED: Potency

1. Oc1ccccc1-n1c(-c2ccccc2)ccc1-c1ccccc1	inactive
2. CC(=O)c1ccc(NS(=O)(=O)c2cccc(C(=O)Nc3ccccc3C(=O)O)c2)cc1	15.1 µM (active)
3. CN(CC(=O)Nc1cccc(F)c1)C(=O)c1ccc(COc2ccccc2)cc1	inactive

====

biological target: C-terminal-binding protein 1 (Homo sapiens) (UniProt Q13363); assay: qHTS for Inhibitors of the Phosphatase Activity of Eya2: Carboxyl-terminal binding protein (CtBP) Counterscreen for Cherry-picked Compounds; settings: purified protein-protein binding, AlphaScreen, 3 h; series mostly up to 46.1 µM; note: nearly all actives have a fitted effect of over 65% in size
Screen size: about 1,300 compounds; about 420 (32%) were called active. Another 32% or so got no clear call; they are omitted. Calls follow the shape of the dose curve; as a rule, active = well fitted inhibition curve with a large enough effect; inconclusive = small, poorly fitted or top-dose-only effect; inactive = no such curve, though single readings can be large or run the other way. The list shows a part of the results.
The categories you may choose from are YES (active), NO (inactive)

Observe how each entry below is paired with its result.
1. COc1ccc(/C=C2\CCc3ccccc3C2=O)cc1CN1CCOCC1	YES
2. NC(=O)c1ccc(NC(=O)COC(=O)/C=C/c2ccc(Br)o2)cc1	NO
3. O=C(Nc1nc2ccc(F)cc2s1)C1=NN(c2ccccc2)C(=O)CC1	NO

Shift focus to the following entry.
// query Per the assay record, what outcome was assigned to `O=C(NCc1ccc2c3c(cccc13)C(=O)N2)c1cccs1` ?
// result NO
